Values were extracted from patent US20080214527A1.

Reported melting point by item:

{"given-smiles": "COCC#Cc1cc(F)ccc1Cc1cnc2c(O)c(C(=O)NCCOC)c(=O)n(C)c2c1", "melting point": "179 to 180 °C"}
{"given-smiles": "Cn1c(=O)c(C(=O)NCCO)c(O)c2ncc(Cc3ccc(F)cc3OCCN3CCOCC3)cc21", "melting point": "161 to 162 °C"}
{"given-smiles": "CC(=O)c1cc(F)ccc1Cc1cnc2c(O)c(C(=O)NCCO)c(=O)n(C)c2c1", "melting point": "212 to 215 °C"}
{"given-smiles": "COCCNC(=O)c1c(O)c2ncc(Cc3ccc(F)cc3COC(N)=O)cc2n(C)c1=O", "melting point": "180 to 183 °C"}
{"given-smiles": "CCNC(=O)OCc1cc(F)ccc1Cc1cnc2c(O)c(C(=O)NCCOC)c(=O)n(C)c2c1", "melting point": "157 to 159 °C"}
{"given-smiles": "Cn1c(=O)c(C(=O)NCCO)c(O)c2ncc(Cc3ccc(F)cc3COC(N)=O)cc21", "melting point": "238 to 240 °C"}
{"given-smiles": "CCNC(=O)OCc1cc(F)ccc1Cc1cnc2c(O)c(C(=O)NCCO)c(=O)n(C)c2c1", "melting point": "180 to 182 °C"}
